Each recorded value in this set is attributed to patent US9751870B2.

# studyTarget: UniProtKB P30559
# Sequence (P30559 whole entry): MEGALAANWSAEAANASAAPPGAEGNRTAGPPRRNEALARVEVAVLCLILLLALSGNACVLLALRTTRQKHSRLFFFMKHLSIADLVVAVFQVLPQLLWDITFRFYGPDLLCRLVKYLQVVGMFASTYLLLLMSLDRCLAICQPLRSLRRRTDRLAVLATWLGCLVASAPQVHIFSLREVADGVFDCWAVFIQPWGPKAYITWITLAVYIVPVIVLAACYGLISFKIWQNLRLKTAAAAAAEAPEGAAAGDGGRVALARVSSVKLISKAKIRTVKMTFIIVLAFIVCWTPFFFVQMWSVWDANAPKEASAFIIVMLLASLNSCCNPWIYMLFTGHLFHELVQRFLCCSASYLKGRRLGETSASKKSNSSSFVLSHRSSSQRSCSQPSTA
# protocolDetails: Calcium flux assay (FLIPR), agonist mode, CHO cells expressing human OTR
# setupConditions: calcium flux in CHO cells expressing human OTR, read-out: hEC50
Field: label. Allowed values: 1 (EC50 < 20 nM) or -1 (EC50 >= 20 nM).

Example results:
smilesString | studyTarget | labelValue
O=S(=O)(Nc1ccnn1-c1ccccn1)c1ccc(Cl)cc1 | UniProtKB P30559 | 1
O=S(=O)(Nc1ccnn1-c1ccccn1)c1ccc(C(F)(F)F)cc1F | UniProtKB P30559 | -1
CCCc1ccc(S(=O)(=O)Nc2ccnn2-c2ccccn2)cc1 | UniProtKB P30559 | -1
CCc1ccc(S(=O)(=O)Nc2ccnn2-c2ccccn2)cc1 | UniProtKB P30559 | 1

A record lists O=S(=O)(Nc1ccnn1-c1ccccn1)c1ccc(S(=O)(=O)C(F)(F)F)cc1 . Is its EC50 below 20 nM?
-1

A record lists O=S(=O)(Nc1ccnn1-c1ccccn1)c1ccc(Cl)cc1Cl . Is its EC50 below 20 nM?
1

A record lists Cc1ccnc(-n2nccc2NS(=O)(=O)c2ccc(C(F)(F)F)cc2)c1 . Is its EC50 below 20 nM?
1

A record lists N#Cc1ccc(S(=O)(=O)Nc2ccnn2-c2ccccn2)cc1 . Is its EC50 below 20 nM?
-1

A record lists O=S(=O)(Nc1ccnn1-c1ccccn1)c1ccc(C(F)(F)F)cc1 . Is its EC50 below 20 nM?
1
